Consider the following compounds and their measured Papp A→B readings.
- protocol-text: Caco-2 permeability assay (apical to basolateral)
- Assay type: in vitro ADME, human
- condition-context: Caco-2, Caco_Papp_Average
Where a SMILES comes first, the peptide text is derived from it. [ ]: non-standard residue; d: D form. NMeI = CC[C@H](C)[C@H](NC)C(=O)O; NMeL = CN[C@@H](CC(C)C)C(=O)O; dNMeL = CN[C@H](CC(C)C)C(=O)O; NMeA = CN[C@@H](C)C(=O)O

compound: CC[C@@H](C)[C@H]1NC(=O)[C@H](C)N(C)C(=O)[C@H]([C@@H](C)CC)NC(=O)[C@H]2CCCN2C(=O)[C@H](CC(C)C)N(C)C(=O)[C@@H](C(C)C)NC(=O)[C@H](C)N(C)C(=O)[C@H]([C@@H](C)CC)NC(=O)[C@@H](CC(C)C)NC(=O)[C@@H]2CCCN2C(=O)[C@H]2CCCN2C1=O [Design D11.10] (cyclo([dL]I[NMeA][dV][NMeL][dP]I[NMeA][dI][dP]P))
unit-text: ×10⁻⁶ cm/s
Papp A→B: 4.54

compound: CC(C)C[C@@H]1NC(=O)[C@@H]2CCCN2C(=O)[C@@H](Cc2ccccc2)NC(=O)[C@H](C)N(C)C(=O)[C@H](CC(C)C)NC(=O)[C@H](CC(C)C)N(C)C(=O)[C@@H](C)NC(=O)[C@@H](CC(C)C)NC(=O)[C@@H]2CCCN2C(=O)[C@@H](Cc2ccccc2)NC1=O (single isomer, unassigned) [Design D10.2.p1]
unit-text: ×10⁻⁶ cm/s
Papp A→B: 9.76

compound: CC[C@H](C)[C@H]1C(=O)N[C@H](C)C(=O)N[C@@H](CC(C)C)C(=O)N[C@@H](C(C)C)C(=O)N2CCC[C@@H]2C(=O)N(C)[C@@H](CC(C)C)C(=O)N[C@@H](C(C)C)C(=O)N2CCC[C@H]2C(=O)N(C)[C@H](CC(C)C)C(=O)N[C@@H](C(C)C)C(=O)N1C [Design D10.19] (cyclo(LV[dP][NMeL]VP[dNMeL]V[NMeI][dA]))
unit-text: ×10⁻⁶ cm/s
Papp A→B: 17.1

====

- condition-context: PAMPA
Where a SMILES comes first, the peptide text is derived from it. [ ]: non-standard residue; d: D form. dNMeF = CN[C@H](Cc1ccccc1)C(=O)O; NMeA = CN[C@@H](C)C(=O)O
Consider the following compounds and their measured PAMPA_R3 readings.
observation-type: PAMPA_R3 (×10⁻⁶ cm/s)

compound: CC(C)C[C@@H]1NC(=O)[C@@H]2CCCN2C(=O)[C@H]2CCCN2C(=O)[C@H](CC(C)C)NC(=O)[C@H](C)N(C)C(=O)[C@H]2CCCN2C(=O)[C@@H](CC(C)C)NC1=O [Design D7.6, DLEU DPRO *ALA LEU DPRO PRO LEU] (cyclo(L[dL][dP][NMeA]L[dP]P))
unit-text: ×10⁻⁶ cm/s
measured-value: 6.12
--
compound: CC(C)C[C@H]1NC(=O)[C@@H]2CCCN2C(=O)[C@@H]2CCCN2C(=O)[C@@H](C)NC(=O)[C@@H](Cc2ccccc2)N(C)C(=O)[C@H]2CCCN2C1=O [Design D6.4, DPRO *DPHE DALA PRO PRO DLEU] (cyclo(PP[dL][dP][dNMeF][dA]))
unit-text: ×10⁻⁶ cm/s
measured-value: 15.8
--
compound: CC[C@H](C)[C@@H]1NC(=O)[C@H](Cc2ccccc2)NC(=O)[C@H]2CCCN2C(=O)[C@H]([C@@H](C)CC)NC(=O)[C@H](C(C)C)NC(=O)[C@@H](C)NC(=O)[C@H]2CCCN2C1=O (single isomer, unassigned) [Design D7.8.p2, VAL ILE DPRO PHE ILE DPRO DALA]
unit-text: ×10⁻⁶ cm/s
measured-value: 5.64

====

- condition-context: PAMPA
Where a SMILES comes first, the peptide text is derived from it. [ ]: non-standard residue; d: D form. dNMeF = CN[C@H](Cc1ccccc1)C(=O)O; NMeL = CN[C@@H](CC(C)C)C(=O)O; dNMeL = CN[C@H](CC(C)C)C(=O)O; NMeM = CN[C@@H](CCSC)C(=O)O; dNMeA = CN[C@H](C)C(=O)O

compound: CC[C@H](C)[C@@H]1NC(=O)[C@@H](C)N(C)C(=O)[C@@H](C)N(C)C(=O)[C@H](C(C)C)NC(=O)[C@H]2CCCN2C(=O)[C@@H]2CCCN2C(=O)[C@H](C(C)C)NC(=O)[C@H]2CCCN2C(=O)[C@@H]2CCCN2C1=O [Design D9.12] (cyclo(IP[dP]VP[dP]V[dNMeA][dNMeA]))
PAMPA_R3: BQL

compound: CC[C@H](C)[C@@H]1NC(=O)[C@H](CCSC)N(C)C(=O)[C@H]2CCCN2C(=O)[C@H](CC(C)C)NC(=O)[C@@H](Cc2ccccc2)NC(=O)[C@@H]2CCCN2C(=O)[C@H]2CCCN2C(=O)[C@H]([C@@H](C)CC)NC(=O)[C@@H](CC(C)C)N(C)C(=O)[C@H](CC(C)C)N(C)C1=O [Design D10.36] (cyclo([dF]L[dP][NMeM]I[NMeL][dNMeL]I[dP]P))
PAMPA_R3: BQL

compound: CC(C)C[C@@H]1C(=O)N[C@H](CC(C)C)C(=O)N(C)[C@H](Cc2ccccc2)C(=O)N(C)[C@@H](CC(C)C)C(=O)N(C)[C@H](C)C(=O)N2CCC[C@H]2C(=O)N(C)[C@H](Cc2ccccc2)C(=O)N[C@@H](C(C)C)C(=O)N[C@H](CC(C)C)C(=O)N2CCC[C@H]2C(=O)N1C [Design D10.14] (cyclo([NMeL][dNMeA]P[dNMeF]V[dL]P[dNMeL][dL][dNMeF]))
PAMPA_R3: BQL

compound: CC(C)C[C@H]1NC(=O)[C@H]2CCCN2C(=O)[C@@H]2CCCN2C(=O)[C@@H](Cc2ccccc2)NC(=O)[C@@H](C(C)C)NC(=O)[C@H](CC(C)C)N(C)C(=O)[C@@H](Cc2ccccc2)NC1=O (single isomer, unassigned) [Design D7.7.p2, PRO DPRO DLEU DPHE *LEU DVAL DPHE]
PAMPA_R3: 11.7 ×10⁻⁶ cm/s

====

- condition-context: PAMPA
Consider the following compounds and their measured PAMPA_R3 readings.

compound: CC(C)[C@@H]1C(=O)N[C@@H](Cc2ccccc2)C(=O)N2CCC[C@H]2C(=O)N(C)[C@H](Cc2ccccc2)C(=O)N[C@H](C)C(=O)N2CCC[C@H]2C(=O)N1C (single isomer, unassigned) [Design D6.8.p1, *DPHE DALA PRO *DVAL PHE PRO]
unit-text: ×10⁻⁶ cm/s
PAMPA_R3: 3.58
--
compound: CC(C)C[C@H]1C(=O)N2CCC[C@@H]2C(=O)N[C@@H](Cc2ccccc2)C(=O)N2CCC[C@H]2C(=O)N[C@H](C(C)C)C(=O)N[C@H](Cc2ccccc2)C(=O)N1C (single isomer, unassigned) [Design D6.9.p2, DVAL DPHE *LEU DPRO PHE PRO]
unit-text: ×10⁻⁶ cm/s
PAMPA_R3: 8.48

====

- condition-context: PAMPA
Where a SMILES comes first, the peptide text is derived from it. [ ]: non-standard residue; d: D form. dNMeF = CN[C@H](Cc1ccccc1)C(=O)O; NMeV = CN[C@H](C(=O)O)C(C)C
observation-type: PAMPA_R1 (×10⁻⁶ cm/s)

molecule: CC[C@@H](C)[C@H]1NC(=O)[C@@H](Cc2ccccc2)N(C)C(=O)[C@@H]2CCCN2C(=O)[C@@H]([C@H](C)CC)NC(=O)[C@@H](Cc2ccccc2)N(C)C(=O)[C@@H]2CCCN2C1=O [Design D6.2, DILE PRO *DPHE DILE PRO *DPHE] (cyclo(P[dNMeF][dI]P[dNMeF][dI]))
measured-value: 17.2

molecule: CC(C)[C@H]1C(=O)N[C@H](Cc2ccccc2)C(=O)N2CCC[C@H]2C(=O)N[C@H](Cc2ccccc2)C(=O)N2CCC[C@H]2C(=O)N2CCC[C@H]2C(=O)N1C [Design D6.6, PRO PRO *VAL DPHE PRO DPHE] (cyclo([NMeV][dF]P[dF]PP))
measured-value: 2.64

====

- condition-context: PAMPA
Where a SMILES comes first, the peptide text is derived from it. [ ]: non-standard residue; d: D form. dNMeL = CN[C@H](CC(C)C)C(=O)O; dNMeA = CN[C@H](C)C(=O)O

compound: CC[C@@H](C)[C@H]1NC(=O)[C@@H](C)NC(=O)[C@@H](CC(C)C)NC(=O)[C@@H](Cc2ccccc2)NC(=O)[C@@H]2CCCN2C(=O)[C@@H]2CCCN2C(=O)[C@@H](CC(C)C)N(C)C(=O)[C@@H](C)N(C)C(=O)[C@@H](CC(C)C)NC(=O)[C@H](CC(C)C)NC(=O)[C@@H](Cc2ccccc2)NC1=O [Design D11.18] (cyclo(L[dL][dNMeA][dNMeL]PP[dF][dL][dA][dI][dF]))
PAMPA_R3: BQL

compound: CC[C@@H](C)[C@H]1NC(=O)[C@@H](CC(C)C)NC(=O)[C@@H](CC(C)C)NC(=O)[C@@H](C)NC(=O)[C@@H](CC(C)C)NC(=O)[C@H]2CCCN2C(=O)[C@@H]2CCCN2C(=O)[C@H]2CCCN2C(=O)[C@@H](C)NC(=O)[C@@H](CC(C)C)N(C)C(=O)[C@H]2CCCN2C1=O [Design D11.19] (cyclo([dP][dL][dA][dL][dL][dI][dP][dNMeL][dA][dP]P))
PAMPA_R3: BQL

compound: CC[C@@H](C)[C@H]1NC(=O)[C@@H](CC(C)C)N(C)C(=O)[C@@H](CC(C)C)N(C)C(=O)[C@H](CC(C)C)NC(=O)[C@@H](CC(C)C)N(C)C(=O)[C@H](Cc2ccccc2)NC(=O)[C@H](CC(C)C)NC(=O)[C@@H]2CCCN2C(=O)[C@H]2CCCN2C(=O)[C@@H]2CCCN2C(=O)[C@H](CC(C)C)NC1=O [Design D11.22] (cyclo(LF[dNMeL]L[dNMeL][dNMeL][dI]LP[dP]P))
PAMPA_R3: BQL
